- target.or.test.system: T1, EsCas13d, nuclease-dead (Eubacterium siraeum, UniProt B0MS50, R295A;H300A;R849A;H854A)
- T1 sequence: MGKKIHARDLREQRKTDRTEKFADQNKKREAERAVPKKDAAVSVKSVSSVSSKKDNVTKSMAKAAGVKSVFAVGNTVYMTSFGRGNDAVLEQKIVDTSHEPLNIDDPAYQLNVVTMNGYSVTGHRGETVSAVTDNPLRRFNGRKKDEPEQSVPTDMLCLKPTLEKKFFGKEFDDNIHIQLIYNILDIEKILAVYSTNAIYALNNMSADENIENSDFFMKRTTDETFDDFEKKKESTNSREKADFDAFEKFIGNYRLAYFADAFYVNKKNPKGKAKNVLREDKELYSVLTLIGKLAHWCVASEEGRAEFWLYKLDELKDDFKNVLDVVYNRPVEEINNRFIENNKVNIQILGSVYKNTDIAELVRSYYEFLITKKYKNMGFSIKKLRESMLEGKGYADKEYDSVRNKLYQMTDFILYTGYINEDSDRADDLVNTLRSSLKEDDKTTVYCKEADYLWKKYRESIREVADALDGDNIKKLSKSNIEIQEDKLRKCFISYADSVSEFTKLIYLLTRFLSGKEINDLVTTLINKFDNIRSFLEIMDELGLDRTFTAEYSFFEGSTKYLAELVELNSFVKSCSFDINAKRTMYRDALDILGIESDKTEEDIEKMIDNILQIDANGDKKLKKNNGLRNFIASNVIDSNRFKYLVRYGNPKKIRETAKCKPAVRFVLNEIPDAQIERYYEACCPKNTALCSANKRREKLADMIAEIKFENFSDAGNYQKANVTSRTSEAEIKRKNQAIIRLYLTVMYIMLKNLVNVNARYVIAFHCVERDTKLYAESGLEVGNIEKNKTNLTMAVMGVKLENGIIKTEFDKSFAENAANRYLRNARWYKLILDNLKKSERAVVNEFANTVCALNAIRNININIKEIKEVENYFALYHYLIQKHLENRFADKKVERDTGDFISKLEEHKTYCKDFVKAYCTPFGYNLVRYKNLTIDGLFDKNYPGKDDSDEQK
- protocol: crRNA (strand 1, pre-loaded); Mg2+; 40 mM Tris-HCl pH 7.5, 150 mM NaCl, 6 mM MgCl2, 1 mM DTT, 0.1% Tween-20, 0.2 mg/ml BSA; 25 C; 10 min per concentration, then washed
- condition: tags: His6-TwinStrep-SUMO cleaved; N-terminal SNAP kept (SNAP-Surface 488); label: 3' end held by stalled T7 RNA polymerase
// reported log10(Kd) for each item listed
metric.name: log10(Kd) (log10 of the value in nM)

binder	reported.value
target 1 insC 3' of 9,insU 3' of 5 (mixed) RNA 1: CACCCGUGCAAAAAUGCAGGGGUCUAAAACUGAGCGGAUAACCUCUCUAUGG RNA 2: GGGAAUGGAUCCACAUCUACGAAUUCGUACCAUAGAGAGGUUACUCCGUCUCACCGAGAUCGGAAGAGCACACGU	0.87
target 3 A12G,U22G (mixed) RNA 1: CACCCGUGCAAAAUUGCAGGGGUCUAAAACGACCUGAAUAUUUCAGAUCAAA RNA 2: GGGAAUGGAUCCACAUCUACGAAUUCGUUGUUGAUCUGAGAUAUUCAGGUCUGCAGAUCGGAAGAGCACACGU	1.93
target 3 insG 3' of 6,insA 3' of 1 (mixed) RNA 1: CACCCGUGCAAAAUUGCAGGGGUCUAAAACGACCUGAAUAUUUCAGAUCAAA RNA 2: GGGAAUGGAUCCACAUCUACGAAUUCGUUUUUGAUCUGAAAUAUUCGAGGUCAUGCAGAUCGGAAGAGCACACGU	1.88
target 1 insC 3' of 15,insU 3' of 5 (mixed) RNA 1: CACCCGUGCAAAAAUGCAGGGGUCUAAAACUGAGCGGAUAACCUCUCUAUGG RNA 2: GGGAAUGGAUCCACAUCUACGAAUUCGUACCAUAGAGCAGGUUAUCCGUCUCACCGAGAUCGGAAGAGCACACGU	1.22
target 1 del19 (mixed) RNA 1: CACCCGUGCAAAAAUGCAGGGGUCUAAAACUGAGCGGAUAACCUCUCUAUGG RNA 2: GGGAAUGGAUCCACAUCUACGAAUUCGUACCAAGAGAGGUUAUCCGCUCACCGAGAUCGGAAGAGCACACGU	1.42
target 2 MT 5'PFS AUU 3'PFS AGU (mixed) RNA 1: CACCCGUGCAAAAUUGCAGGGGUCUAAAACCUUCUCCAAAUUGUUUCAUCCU RNA 2: GGGAAUGGAUCCACAUCUACGAAUUCAUUAGGAUGAAACAAUUUGGAGAAGAGUAGAUCGGAAGAGCACACGU	0.65
target 2 MT 5'PFS GUG 3'PFS CGU (mixed) RNA 1: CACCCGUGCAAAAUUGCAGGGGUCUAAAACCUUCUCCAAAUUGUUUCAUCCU RNA 2: GGGAAUGGAUCCACAUCUACGAAUUCGUGAGGAUGAAACAAUUUGGAGAAGCGUAGAUCGGAAGAGCACACGU	1.17
